Provenance of the data: patent US6140333A

Kindly state Ki for each of the entries shown.
Molecular target: m2 muscarinic acetylcholine receptor (Homo sapiens)
Sequence (P08172 1-466): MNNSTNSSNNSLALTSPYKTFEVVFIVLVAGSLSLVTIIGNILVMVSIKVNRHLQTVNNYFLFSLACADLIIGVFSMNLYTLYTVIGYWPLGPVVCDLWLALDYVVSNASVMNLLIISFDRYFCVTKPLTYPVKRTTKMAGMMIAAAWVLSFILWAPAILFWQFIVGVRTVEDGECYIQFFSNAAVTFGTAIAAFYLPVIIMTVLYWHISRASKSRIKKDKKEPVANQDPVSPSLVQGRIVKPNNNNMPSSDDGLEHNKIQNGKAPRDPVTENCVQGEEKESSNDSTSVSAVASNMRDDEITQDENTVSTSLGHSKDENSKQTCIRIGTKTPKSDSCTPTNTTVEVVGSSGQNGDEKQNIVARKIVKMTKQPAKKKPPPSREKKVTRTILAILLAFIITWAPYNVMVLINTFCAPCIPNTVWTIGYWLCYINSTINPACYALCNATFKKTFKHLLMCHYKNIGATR
Give bare numbers, in nM.

Solved cases (3 shown):
CC1NCCC12CCN(C(=O)[C@](O)(c1ccccc1)[C@@H]1CCC(F)(F)C1)CC2 (single isomer, unassigned) : 21
O=C(N1CCC2(CCNC2)CC1)[C@](O)(c1ccccc1)[C@@H]1CCC(F)(F)C1 : 27
O=C(N1CC2=C(CNC2)C1)[C@](O)(c1ccccc1)[C@@H]1CCC(F)(F)C1 : 670

# next compound below
For the compound `O=C(N1C[C@H]2CCNCC[C@H]2C1)[C@](O)(c1ccccc1)[C@@H]1CCC(F)(F)C1` , what Ki is on record?
230

====

Would you kindly list m2/m3 (ratio of Ki) for each of these molecules?
target: m3 muscarinic acetylcholine receptor (Homo sapiens); construct: purchased Receptor Biology Inc; host or cells: CHO cells; test: biochemical; assay type: binding; details: selectivity m2 over m3, binding
Sequence (P20309 whole entry): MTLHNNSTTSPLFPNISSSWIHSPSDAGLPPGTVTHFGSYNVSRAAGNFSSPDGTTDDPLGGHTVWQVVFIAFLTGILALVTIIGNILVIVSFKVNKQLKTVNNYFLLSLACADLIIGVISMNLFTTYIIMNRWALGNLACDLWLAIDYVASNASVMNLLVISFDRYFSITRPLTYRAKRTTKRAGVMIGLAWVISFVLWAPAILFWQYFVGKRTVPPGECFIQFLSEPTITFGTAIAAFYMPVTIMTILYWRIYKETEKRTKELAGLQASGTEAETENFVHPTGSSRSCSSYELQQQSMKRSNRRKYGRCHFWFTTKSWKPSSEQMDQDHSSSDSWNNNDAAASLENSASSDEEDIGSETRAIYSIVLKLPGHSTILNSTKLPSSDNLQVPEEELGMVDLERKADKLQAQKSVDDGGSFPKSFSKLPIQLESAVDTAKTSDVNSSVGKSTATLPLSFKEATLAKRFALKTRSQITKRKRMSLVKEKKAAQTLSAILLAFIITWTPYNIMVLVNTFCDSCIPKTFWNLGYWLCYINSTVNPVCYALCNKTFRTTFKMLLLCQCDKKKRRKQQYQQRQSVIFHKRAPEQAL
Answers are plain numbers.

Below: 3 molecules and their reported m2/m3 (ratio of Ki).
O=C(N1CCC2(CCNC2)CC1)[C@](O)(c1ccccc1)[C@@H]1CCC(F)(F)C1 : 60
O=C(N1C[C@H]2CCNCC[C@H]2C1)[C@](O)(c1ccccc1)[C@@H]1CCC(F)(F)C1 : 190
CC1NCCC12CCN(C(=O)[C@](O)(c1ccccc1)[C@@H]1CCC(F)(F)C1)CC2 (single isomer, unassigned) : 80

Below: the item to evaluate.
State its m2/m3 (ratio of Ki) on m3 muscarinic acetylcholine receptor (Homo sapiens): `O=C(N1CC2=C(CNC2)C1)[C@](O)(c1ccccc1)[C@@H]1CCC(F)(F)C1`
160

====

target: M3 receptor (trachea) (Rattus norvegicus, UniProt P08483); construct: the trachea was isolated; from tissue; host or cells: isolated trachea of male SD rat; experiment: Antagonism to airway M3 receptor in isolated rat trachea (carbachol dose-response); conditions: selectivity right atrium M2 over trachea M3, in vitro
Sequence (P08483 whole entry): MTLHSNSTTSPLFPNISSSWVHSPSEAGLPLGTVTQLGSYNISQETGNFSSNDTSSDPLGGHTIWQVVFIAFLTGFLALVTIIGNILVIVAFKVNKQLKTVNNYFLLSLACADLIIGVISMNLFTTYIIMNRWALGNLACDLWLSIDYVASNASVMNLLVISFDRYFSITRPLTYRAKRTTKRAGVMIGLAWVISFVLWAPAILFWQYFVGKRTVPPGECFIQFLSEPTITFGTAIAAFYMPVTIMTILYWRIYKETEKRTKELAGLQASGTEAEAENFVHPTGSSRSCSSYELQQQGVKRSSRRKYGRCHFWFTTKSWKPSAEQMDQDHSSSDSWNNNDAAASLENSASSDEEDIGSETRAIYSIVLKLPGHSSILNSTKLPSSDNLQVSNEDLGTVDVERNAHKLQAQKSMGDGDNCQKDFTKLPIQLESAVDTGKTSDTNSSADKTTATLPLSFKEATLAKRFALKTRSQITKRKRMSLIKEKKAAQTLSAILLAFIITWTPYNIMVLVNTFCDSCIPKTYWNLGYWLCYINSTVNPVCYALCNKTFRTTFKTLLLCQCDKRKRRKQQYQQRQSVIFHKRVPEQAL
Field: M2/M3 (ratio of KB). Provide a value for each of the compounds that follow.
Give bare numbers.

O=C(N1CCC2(CCNC2)CC1)[C@](O)(c1ccccc1)[C@@H]1CCC(F)(F)C1 [Example 26] : 75
O=C(N1CC2=C(CNC2)C1)[C@](O)(c1ccccc1)[C@@H]1CCC(F)(F)C1 [Example 35] : 300
O=C(N1C[C@H]2CCNCC[C@H]2C1)[C@](O)(c1ccccc1)[C@@H]1CCC(F)(F)C1 [Example 29] : 140

// below: M2/M3 (ratio of KB) requested for another compound
// returns reported M2/M3 (ratio of KB) for input Cl.NC1CCN(C(=O)[C@](O)(c2ccccc2)[C@@H]2CCC(F)(F)C2)CC1 [Example 1]
37

====

Ki, m3 muscarinic acetylcholine receptor (Homo sapiens): measured values
Answers are plain numbers, in nM.

Please review the following examples before continuing.
O=C(N1CC2=C(CNC2)C1)[C@](O)(c1ccccc1)[C@@H]1CCC(F)(F)C1 : 4.2
O=C(N1C[C@H]2CCNCC[C@H]2C1)[C@](O)(c1ccccc1)[C@@H]1CCC(F)(F)C1 : 1.2
O=C(N1CCC2(CCNC2)CC1)[C@](O)(c1ccccc1)[C@@H]1CCC(F)(F)C1 : 0.44

Lab note: next molecule to report on.
Report Ki for CC1NCCC12CCN(C(=O)[C@](O)(c1ccccc1)[C@@H]1CCC(F)(F)C1)CC2 (single isomer, unassigned) tested on m3 muscarinic acetylcholine receptor (Homo sapiens).
0.26

====

biological target: M3 receptor (trachea) (Rattus norvegicus); construct: the trachea was isolated; from tissue; host or cells: isolated trachea of male SD rat; test: Antagonism to airway M3 receptor in isolated rat trachea (carbachol dose-response); settings: isolated rat trachea, carbachol, 32° C.
RECORDED_METRIC: Kb (nM)
One number for each entry, in nM.

// for each compound in input: emit Kb
1. O=C(N1CC2=C(CNC2)C1)[C@](O)(c1ccccc1)[C@@H]1CCC(F)(F)C1
2. O=C(N1CCC2(CCNC2)CC1)[C@](O)(c1ccccc1)[C@@H]1CCC(F)(F)C1
3. O=C(N1C[C@H]2CCNCC[C@H]2C1)[C@](O)(c1ccccc1)[C@@H]1CCC(F)(F)C1
4. Cl.NC1CCN(C(=O)[C@](O)(c2ccccc2)[C@@H]2CCC(F)(F)C2)CC1 [Example 1, monohydrochloride]

1. 8
2. 0.83
3. 1.6
4. 20

====

Target: M2 receptor (right atrium) (Rattus norvegicus, UniProt P10980)
Construct: the right atrium was isolated; from tissue; host or cells: isolated right atrium of male SD rat
Sequence (P10980 1-466): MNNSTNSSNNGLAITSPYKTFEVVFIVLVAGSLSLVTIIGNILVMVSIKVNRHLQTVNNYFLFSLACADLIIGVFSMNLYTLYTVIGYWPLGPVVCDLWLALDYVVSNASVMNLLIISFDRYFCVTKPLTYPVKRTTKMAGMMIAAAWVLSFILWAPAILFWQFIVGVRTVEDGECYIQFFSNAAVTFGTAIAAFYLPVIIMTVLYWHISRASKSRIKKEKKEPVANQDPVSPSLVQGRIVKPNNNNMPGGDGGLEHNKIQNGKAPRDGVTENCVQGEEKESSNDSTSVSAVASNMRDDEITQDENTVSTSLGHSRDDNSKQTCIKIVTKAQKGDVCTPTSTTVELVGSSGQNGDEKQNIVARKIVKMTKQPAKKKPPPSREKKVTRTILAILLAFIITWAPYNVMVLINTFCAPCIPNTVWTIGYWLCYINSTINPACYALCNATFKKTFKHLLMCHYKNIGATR
Experiment: Antagonism to M2 receptor in isolated rat right atrium (carbachol dose-response)
Settings: 32° C.
Hi there, I'd appreciate the recorded Kb for every entry that follows.
Answers are plain numbers, in nM.

Here is how some compounds turned out for Kb.
O=C(N1CC2=C(CNC2)C1)[C@](O)(c1ccccc1)[C@@H]1CCC(F)(F)C1 : 2400
O=C(N1CCC2(CCNC2)CC1)[C@](O)(c1ccccc1)[C@@H]1CCC(F)(F)C1 : 75
Cl.NC1CCN(C(=O)[C@](O)(c2ccccc2)[C@@H]2CCC(F)(F)C2)CC1 [Example 1, monohydrochloride] : 730

Now, please, on to the next compound.
Any idea what its Kb is? The compound is `O=C(N1C[C@H]2CCNCC[C@H]2C1)[C@](O)(c1ccccc1)[C@@H]1CCC(F)(F)C1`
230
